- system tested: hPD-L1 (Homo sapiens, UniProt Q9NZQ7)
- Sequence (Q9NZQ7 19-238 limits assumed): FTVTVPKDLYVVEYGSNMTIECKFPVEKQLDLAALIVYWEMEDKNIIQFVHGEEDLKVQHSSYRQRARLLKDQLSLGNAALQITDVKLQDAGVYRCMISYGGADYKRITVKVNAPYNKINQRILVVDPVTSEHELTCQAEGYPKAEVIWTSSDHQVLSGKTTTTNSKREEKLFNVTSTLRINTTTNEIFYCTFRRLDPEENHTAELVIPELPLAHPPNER
- experimental details: Biolayer interferometry
- Format: binding
Bridge positions count the residues as written; N and C are the ends. Square brackets hold non-standard residues; d marks the D form. Ends that are not written are not given here. I, II: the chains in the order shown. PEG10 = NCCOCCOCCOCCOCCOCCOCCOCCOCCOCCOCCC(=O)O
Measured koff, listed per entry.
Reply with just the number (in s⁻¹).

Illustrative cases are given below, each with its answer.
Query :: What koff value was documented for this substance, I: MYSSTDHILNKFLILHYALNPT[PEG10]K-NH2 / II: MYSSTDHILNKFLILHYALNPT[PEG10] (amide I:24-II:C) [SPAM4] ?
Result :: 0.000219

Query :: Then this substance: MYSSTDHILNKFLILHYALNPT-NH2 [SPAM3]
Result :: 0.00146

Query :: And for MPIFLDHILNKFWILHYA-NH2 [SPAM] ?
Result :: 0.049

Could you now look at the following substance, please?
Query :: Fill blank: measured koff of the substance MWSRSDHNLNKFWILHYSANPS-NH2 [SPAM2] is ____.
Result :: 0.00264

Just for reference, paper PMC12376068 is where these values come from.
